src = paper PMC5540273

System: MEK3
Construct: gene MAP2K3
Details: concentration: 1 μM, replicates: in singlicate; n = 1;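 also: KINOMEscan kinase panel screen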
Quick reference for %Inh among some molecules
Give your result in % as a bare value.

Consider the following illustrative entries.
CC(C)N1CCC(n2cnc(-c3ccc(F)cc3)c2-c2ccnc(N)n2)CC1 = 0
CC(=O)Nc1n[nH]c2ncc(-c3ccccc3)cc12 = 19
CC(C)(C)OC(=O)NC1CCCN(c2cc(-c3ccc4c(N)n[nH]c4c3)nc(N)n2)C1 (centres unmarked) = 0

Prompt: What %Inh value was documented for this molecule, `Cc1cc(N2CCC(NS(=O)(=O)c3ccc(F)cc3)CC2)nc(Nc2cccc(C#N)c2)n1.O=C(O)C(F)(F)F` ?
Response: 0

* * *

Quick reference for %Inh among some molecules
System: TNIK
Conditions: concentration: 1 μM, replicates: in singlicate; n = 1
Give your result in % as a bare value.

CSc1ccc(NC2=C(c3ccccc3Cl)C(=O)NC2=O)cc1 [SB-342411] = 0

Prompt: GET /values?readout=%Inh&system=TNIK&item= `Fc1ccc(-c2ncn(CCCNCc3ccccc3)c2-c2ccncc2)cc1`
Response: 12

Prompt: GET /values?readout=%Inh&system=TNIK&item= COc1ccc(NC(=O)c2ccc(-c3cc(-c4nnc(C)o4)ccc3C)cc2)cc1 [GW595885]
Response: 0

Prompt: GET /values?readout=%Inh&system=TNIK&item= `COC(=O)c1c(-c2ccccc2)c2cc(Cl)ccc2c(=O)n1Cc1ccc(S(C)(=O)=O)cc1`
Response: 4

* * *

Test system: EPHA5
Conditions: concentration: 1 μM, replicates: in singlicate; n = 1
READOUT KIND: %Inh (%)
Give your result in % as a bare value.

Consider the following illustrative entries.
Nc1nccc2scc(-c3ccc4c(c3)CCN4C(=O)Cc3cc(F)ccc3F)c12 = 0
Nc1nc(-c2ccc3c(N)n[nH]c3c2)cc(N2CCC[C@@H](C(=O)Nc3ccccc3)C2)n1.O=C(O)C(F)(F)F.O=C(O)C(F)(F)F = 0
O=C(c1ccc(-c2cc(-c3c[nH]nc3-c3ccccn3)ccn2)cc1)N1CCCC1 = 36
Nc1nc(-c2ccc3c(N)n[nH]c3c2)cc(N2CCCCC2)n1 = 0
Cl.Fc1ccccc1COc1ccc(Nc2ncnc3ccc(-c4nnc(C(F)(F)F)o4)cc23)cc1Cl = 0

Prompt: GET /values?readout=%Inh&system=EPHA5&item= `Cc1cc(N2CCC(NS(=O)(=O)c3ccc(F)cc3)CC2)nc(Nc2cccc(C#N)c2)n1.O=C(O)C(F)(F)F`
Response: 0

Prompt: GET /values?readout=%Inh&system=EPHA5&item= `COc1ccc(-c2nc3n(c2-c2ccncc2)CCC3)cc1`
Response: 0

* * *

System: LIMK1
Settings: concentration: 1 μM, replicates: in singlicate; n = 1
READOUT KIND: %Inh (%)
Give your result in % as a bare value.

Nc1n[nH]c2nnc(-c3ccccc3)cc12 = 19
Cc1ccc(NC(=O)c2cccc(C#N)c2)cc1-c1ccc(C(=O)Nc2ccncc2)cc1 = 28
Nc1nccc2scc(-c3ccc4c(c3)CCN4C(=O)Cc3cc(F)ccc3F)c12 = 4
Nc1nc(-c2cccnc2)c(-c2ccnc3ccccc23)s1 = 0
Cn1ccc2ncnc(Nc3ccc(Oc4cccc(Cl)c4)c(Cl)c3)c21 = 0

Prompt: What %Inh value was documented for this molecule, `O=C(Nc1ccccc1)Nc1ccc(Oc2ccc3nccn3n2)cc1` ?
Response: 10

Prompt: What %Inh value was documented for this molecule, `OCCOCCn1ccc2ncnc(Nc3ccc(Oc4cccc(Cl)c4)c(Cl)c3)c21` ?
Response: 0

Prompt: What %Inh value was documented for this molecule, `Cn1cc(-c2ccc3c(c2)CCN3C(=O)Cc2cccc(C(F)(F)F)c2)c2c(N)ncnc21` ?
Response: 0

Prompt: What %Inh value was documented for this molecule, `Fc1ccc(-c2ncn(CCCNCc3ccccc3)c2-c2ccncc2)cc1` ?
Response: 10

Prompt: What %Inh value was documented for this molecule, `COc1cc2c(Nc3cccc(NC(=O)c4ccccc4)c3)ncnc2cc1OCCCN1CCOCC1` ?
Response: 13

Prompt: What %Inh value was documented for this molecule, `CCn1c(-c2ccncc2)nc2cnccc21` ?
Response: 12

Prompt: What %Inh value was documented for this molecule, `O=C(CCO)NCCn1ccc2ncnc(Nc3ccc(Oc4cccc(C(F)(F)F)c4)c(Cl)c3)c21` ?
Response: 0

Prompt: What %Inh value was documented for this molecule, COc1ccc(Nc2nccc(N3CCC(NC(=O)Nc4ccc5c(c4)OCO5)C3)n2)cc1 (stereo not shown) ?
Response: 0

Prompt: What %Inh value was documented for this molecule, O=C(Nc1ccccc1F)NC1CCN(c2ccnc(Nc3ccc(F)cc3)n2)C1 (stereo not shown) ?
Response: 10

Prompt: What %Inh value was documented for this molecule, `COc1cc2ncnc(Nc3ccc(OCc4ccccc4Br)c(Cl)c3)c2cc1OC.Cl` ?
Response: 0

Prompt: What %Inh value was documented for this molecule, `COC(=O)c1c(-c2ccccc2)c2cc(Cl)ccc2c(=O)n1Cc1ccc(S(C)(=O)=O)cc1` ?
Response: 1

Prompt: What %Inh value was documented for this molecule, `O=c1cc(N2CCOCC2)nc2n(Cc3cccc(Cl)c3)ccn12` ?
Response: 15

Prompt: What %Inh value was documented for this molecule, `CCc1nc(-c2cccc(C)c2)c(-c2ccnc(NC(=O)c3ccccc3)c2)s1` ?
Response: 0

Prompt: What %Inh value was documented for this molecule, `Fc1cccc(COc2ccc(Nc3ncnc4cc[nH]c34)cc2Cl)c1` ?
Response: 22

Prompt: What %Inh value was documented for this molecule, `Fc1cccc(COc2ccc(Nc3ncnc4sc(-c5ccc[nH]5)cc34)cc2Cl)c1` ?
Response: 9

Prompt: What %Inh value was documented for this molecule, `O=C(Nc1n[nH]c2nc(-c3ccco3)c(Br)cc12)c1ccc(CN2CCCC2)cc1.O=C(O)[C@H](O)[C@@H](O)C(=O)O` ?
Response: 26

Prompt: What %Inh value was documented for this molecule, `FC(F)(F)c1cc(Nc2nccc(-c3c(-c4ccc(Cl)cc4)nn4ncccc34)n2)ccc1Cl` ?
Response: 0
